Recorded values, source paper PMC6155732.

Assay: Pharmacokinetics of compounds 1–11 in rat plasma (UPLC-TQ/MS) after oral administration of HYD and plus-minus Haizao/Gancao decoctions
Format: in vivo, Wistar rats (PTU-induced model of hypothyroidism)
Conditions: Wistar, 10 mL/kg, group HYD-GH (HYD minus Gancao and Haizao; HYD-GC-HZ), 10 mL/kg intragastrically, model rats, n = 6, mean ± S.D.
Procedure: Plasma samples (200 μL) and IS solution (50 μL, 1215 ng/mL for diphenhydramine, 476 ng/mL for chloromycetin) were added to an Eppendorf tube, and this mixture was extracted with methanol (550 μL) by shaking on a vortex-mixer for 2 min, and centrifuged for 10 min at 13,000 rpm. The contents were evaporated to dryness in a rotary evaporator at 37 °C. The residue was reconstituted in methanol (100 μL) and centrifuged (13,000 rpm for 10 min). […]
readout-kind: half-life (h)

Example entries begin here.
line-notation | half-life (h)
COc1c2ccoc2cc2oc(=O)ccc12 | 9.6
COc1ccc(-c2cc(=O)c3c(OC)c(OC)c(OC)c(OC)c3o2)cc1OC | 3.26

a. C[C@@H]1O[C@@H](O[C@H]2[C@H](Oc3cc(O)c4c(c3)O[C@H](c3ccc(O)cc3)CC4=O)O[C@H](CO)[C@@H](O)[C@@H]2O)[C@H](O)[C@H](O)[C@H]1O
b. COc1ccc2ccc(=O)oc2c1CC=C(C)C
Exercise: Which has the higher half-life, a or b ? Answer format: the label of the selected item.
Solution: a
(a: 1.23 h, b: 0.68 h)
